- Experiment Summary: gradient 5% acetonitrile 3 min, to 50% in 2 min, to 85% in 15 min, held 3 min, 100 µL/min
- Test Settings: column: Zorbax Extend-C18 2.1 x 50 mm; eluents: water / acetonitrile, 0.1% formic acid
Kindly apply the following: yes if RP-LC retention time is less than 700 s, no in every other case.

Before answering, review these 5 worked examples.
Compound	Group Label
Cc1noc(C2CN(C(=O)Nc3ccccc3Cl)CC23CCOCC3)n1 (centres undefined)	no
Cc1ccccc1-c1noc(C2CCCN2S(=O)(=O)c2ccc(Cl)cc2C)n1 (centres undefined)	no
Cc1ccc(Nc2c(-c3ccc(C)cc3)nc3ncccn23)cc1	no
O=C(Cn1cc(C(=O)c2ccccc2)c(=O)c2cc(F)ccc21)Nc1ccc2c(c1)OCO2	no
Cc1cccc(Sc2nccnc2N2CCCC(C(=O)Nc3ccc(Br)cc3)C2)c1 (centres undefined)	no

Q: Record COc1ccc(C(C)NC(=O)c2cc(NC(C)=O)cc3nc(C)ccc23)cc1 (centres undefined) : is its RP-LC retention time strictly below 700 s?
Result: yes

Q: Item Cn1c(=O)oc2cc(-c3noc(CNS(=O)(=O)c4ccccc4)n3)ccc21 : RP-LC retention time beneath 700 s, strictly?
Result: no

Q: Here's an entry: O=C(Nc1ccc(-c2nc(-c3ccccc3)no2)cc1)C1CC(=O)N(c2ccccc2)C1 (centres undefined) . Is its RP-LC retention time below 700 s?
Result: no

Q: Below 700 s on RP-LC retention time? Entry COCc1nncn1C1CCN(C(=O)c2cc(F)ccc2Cl)CC1
Result: yes

Q: Take the compound Cc1cc(N2CCN(S(=O)(=O)c3ccc(C)c(C)c3)CC2)nc(NC2CCCCC2)n1 and say whether its RP-LC retention time is less than 700 s.
Result: no

Q: Is the reported RP-LC retention time for CCc1cc(=O)n(CC(=O)NCc2ccc(F)cc2Cl)c(N2CCOCC2)n1 strictly below 700 s?
Result: no

Q: Is RP-LC retention time strictly under 700 s for the entry Cc1cc(C)cc(NC(=O)c2csc(-c3cn(C)c4ncccc34)n2)c1 ?
Result: no

----------
Entries annotated with measured RP-LC retention time
- Experiment Summary: gradient 5% acetonitrile 3 min, to 50% in 2 min, to 85% in 15 min, held 3 min, 100 µL/min
- Test Settings: column: Zorbax Extend-C18 2.1 x 50 mm; eluents: water / acetonitrile, 0.1% formic acid
Express the result in s but write the number alone.

Recorded RP-LC retention time, per entry:
Compound	Recorded Endpoint	Recorded Measurement
Cc1ccc2nc(C(=O)NCc3cccc(F)c3)cn2c1	RP-LC retention time	689
CCC1CN(CC(=O)N2CCN(c3ccccn3)CC2)c2ccccc2S1 (stereo not given)	RP-LC retention time	723
CC(C)CNC(=O)c1ccc(-c2nc3cccnc3n2C2CCCCC2)cc1	RP-LC retention time	926

Q: Which RP-LC retention time is listed for OC[C@@H]1CN(C2CCSCC2)C[C@H]1c1nc(-c2cccnc2)no1 ?
Result: 555

Q: What value of RP-LC retention time has been recorded for this entry: COc1ccc(CNC(=O)NCCc2cn(C)c3ncccc23)cc1
Result: 649

----------
- Experiment Summary: gradient 5% acetonitrile 3 min, to 50% in 2 min, to 85% in 15 min, held 3 min, 100 µL/min
- Test Settings: column: Zorbax Extend-C18 2.1 x 50 mm; eluents: water / acetonitrile, 0.1% formic acid
Recorded Endpoint: RP-LC retention time

Check out these entries, answers already filled in.
Compound	Recorded Measurement
O=C(OCc1cc(-c2cccs2)on1)c1ccc(Cn2ccnc2)cc1	600 s
Cn1c(SCC(=O)c2ccccc2OC(F)F)nc2ccccc21	808 s

Q: What value of RP-LC retention time has been recorded for this entry: COc1cccc(NC(=O)N2CCc3cn(C)c4cccc(c34)C2)c1
Result: 771 s

Q: What does the record list as RP-LC retention time for Cc1ccc(NC(=O)Cn2c(=O)nc(N3CCC(C)CC3)c3ccccc32)cc1C ?
Result: 909 s

Q: Given the entry CCn1cc(C(=O)Nc2cccc(OC)c2)c2cccnc21 , report its measured RP-LC retention time.
Result: 809 s

Q: Endpoint output: RP-LC retention time of CC(C)n1c(=O)c(NCc2ccc(N3CCOCC3)cc2)nc2ccncc21 . Value?
Result: 606 s

Q: Could you share which RP-LC retention time value was measured for Cc1cc2occ(CN(C)CCN(C)Cc3cn(-c4cccc(C(F)(F)F)c4)c4ccccc34)c(=O)c2cc1C ?
Result: 1090 s

Q: Requested read-out: RP-LC retention time. Entry: CN1C(=O)COc2cc(-c3noc(C(=O)NCc4cccnc4)n3)ccc21
Result: 613 s

Q: For Cc1ccc(N2CCC(NC(=O)Nc3ccccc3)C2=O)cc1C (stereo not given) , what is its reported RP-LC retention time?
Result: 870 s

Q: Find the recorded RP-LC retention time belonging to Cc1cc(C)cc(S(=O)(=O)N2CCC(n3cnc4c(C)cccc4c3=O)CC2)c1 and report it.
Result: 1070 s

Q: Sample CC(C)(C)S(=O)(=O)c1ccc(N2CCN(Cc3ccccc3)CC2)nn1 — what was its RP-LC retention time?
Result: 566 s

Q: Query (compound): COc1cc(OC)c(NC(=O)Cc2nnc(-c3cnccn3)o2)cc1Cl ; field requested: RP-LC retention time
Result: 647 s

Q: Entry under review: CSc1ccc(-c2nc3ccc(C)cn3c2Nc2ccc(C)cc2)cc1 . Reported RP-LC retention time?
Result: 819 s

Q: Given the compound CC1=C(c2ccc(F)cc2)S(=O)(=O)N=C1N1CCCN(C(=O)c2ccsc2)CC1 , what is its reported RP-LC retention time?
Result: 802 s

Q: Which RP-LC retention time value is on record for Cc1cc2nn(CC(=O)NCc3ccc(F)cc3)c(=O)n2c(-c2ccccc2)n1 ?
Result: 744 s

Q: What does the data say about its RP-LC retention time? Entry: CC(C)NC(=O)Cn1nc2c3cc(-c4ccc(C(C)C)cc4)nn3ccn2c1=O
Result: 911 s

Q: I have this compound here, CCNC(=O)C1CCCN(c2nc3ncn(CC(=O)Nc4ccccc4F)c(=O)c3s2)C1 (stereo not given) , and I need its recorded RP-LC retention time.
Result: 647 s

Q: Requested field: RP-LC retention time. Item: CCc1nc2c(NC(=O)c3ccc(C)c(C)c3)cccn2n1
Result: 922 s

Q: Name the reported RP-LC retention time value associated with the compound CN(C)C(=O)c1cc(=O)[nH]c2c(Cl)cccc12
Result: 604 s

Q: For the compound shown here, O=C([C@@H]1C[C@H](F)CN1S(=O)(=O)c1ccc(F)cc1F)N1CCc2ccccc2C1 , give the reported RP-LC retention time.
Result: 906 s

----------
Recorded RP-LC retention time by entry
- Experiment Summary: gradient 5% acetonitrile 3 min, to 50% in 2 min, to 85% in 15 min, held 3 min, 100 µL/min
- Test Settings: column: Zorbax Extend-C18 2.1 x 50 mm; eluents: water / acetonitrile, 0.1% formic acid
Field: numeric (s). Do not append units.

Compound	Recorded Measurement
CCCCN(CC)Cc1ccc(CNC(=O)C2CCCN(c3nnc(N4CCCC4=O)s3)C2)o1 (centres undefined)	611
CCOc1ccc(Cl)cc1S(=O)(=O)N1CCC(C(=O)Nc2ccc3c(c2)OCCO3)CC1	1150

Q: Request the reported RP-LC retention time associated with Cc1ccc(NC(=O)CN2C(=O)COc3ccc(C(=O)N4CCCC4)cc32)nc1
Result: 625

Q: Fill in the blank: the reported RP-LC retention time of Cc1nnc(NC(=O)CCc2csc(NC(=O)NC3CCCCC3)n2)s1 is ____.
Result: 682

Q: If you can, please state the reported RP-LC retention time value of O=C(C1CCCN(c2ncnc3c2nc2n3CCCCC2)C1)N1CCN(C2CCCCC2)CC1 (centres undefined) .
Result: 604

Q: // RP-LC retention time lookup, key: CCc1nc(OCC(=O)NCc2ccc3c(c2)OCO3)c2ccccc2n1
Result: 902

Q: Report RP-LC retention time for O=C(NCCCN1CCCC1=O)c1csc(N2CCN(c3ccc(F)cc3)CC2)n1 please.
Result: 714

Q: Fill in: RP-LC retention time of COc1ccc(-c2nc3c(C)cccn3c2Nc2ccc(C)cc2)cc1 is ___
Result: 736

Q: Need RP-LC retention time of CCCNC(=O)C1CCN(c2ccc(SCC(=O)Nc3ccccc3Cl)nn2)CC1 , thanks.
Result: 655

----------
- Experiment Summary: gradient 5% acetonitrile 3 min, to 50% in 2 min, to 85% in 15 min, held 3 min, 100 µL/min
- Test Settings: column: Zorbax Extend-C18 2.1 x 50 mm; eluents: water / acetonitrile, 0.1% formic acid
Reported RP-LC retention time values for a set of molecules
# number only, unit s dropped from output

Molecule	RP-LC retention time / s
Cc1noc(C2(NC(=O)c3ccc(C(C)(C)C)cc3)CCCCC2)n1	1090
CC1=C(c2ccc(C)c(C)c2)S(=O)(=O)N=C1N1CCC(NC(=O)CCC(C)C)CC1	962
COc1ccc(-c2ncc3c(n2)CCN(C(=O)Nc2ccccc2Cl)C3)cc1	948

Q: Look up RP-LC retention time for this molecule: O=C(O)c1ccc2c(ccn2Cc2ccccc2)c1
Result: 843

Q: // RP-LC retention time lookup, key: Cc1cccc(Cl)c1S(=O)(=O)Nc1ccc2c(c1)CCC(=O)N2C
Result: 788
